Assay: cells
Details: Homo sapiens, THP-1
Description: Inhibition of ATP-mediated IL-1beta release in LPS primed BzATP induced monocytic human THP-1 cells primed with LPS for 5 hrs followed by BzATP and compound addition for 40 mins by ELISA

{"smiles-notation": "CC[N+]1(CC)CCN(c2ccc(C(=O)Nc3cccc(C)n3)cc2)CC1.[I-]", "u": "µM", "IC50": 14}

###

Target: Neuronal acetylcholine receptor subunit alpha-9 (Homo sapiens)
Sequence (Q9UGM1 whole entry): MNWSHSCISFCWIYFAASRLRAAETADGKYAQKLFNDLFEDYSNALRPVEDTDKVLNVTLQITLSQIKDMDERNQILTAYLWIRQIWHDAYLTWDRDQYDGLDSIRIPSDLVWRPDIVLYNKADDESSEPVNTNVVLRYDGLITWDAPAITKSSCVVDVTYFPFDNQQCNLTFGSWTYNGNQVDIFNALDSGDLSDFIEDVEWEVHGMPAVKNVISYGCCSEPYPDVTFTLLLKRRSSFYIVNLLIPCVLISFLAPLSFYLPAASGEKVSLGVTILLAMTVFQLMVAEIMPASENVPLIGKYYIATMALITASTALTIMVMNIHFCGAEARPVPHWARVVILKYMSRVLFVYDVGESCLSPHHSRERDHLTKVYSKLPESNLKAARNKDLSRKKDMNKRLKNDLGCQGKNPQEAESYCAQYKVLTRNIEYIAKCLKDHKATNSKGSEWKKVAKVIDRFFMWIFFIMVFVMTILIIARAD
Test: Agonist activity at alpha9 nAChR (unknown origin)
pEC50: −log10 of the molar value.
Recorded pEC50, one value per entry.

{"smiles-notation": "CC[N+]1(CC)CCN(c2ccc(C#N)cc2)CC1", "test-system": "Neuronal acetylcholine receptor subunit alpha-9 (Homo sapiens)", "pEC50": 6.43}
{"smiles-notation": "CC[N+]1(CC)CCN(c2ccc(C(=O)Nc3cccc(C)n3)cc2)CC1.[I-]", "test-system": "Neuronal acetylcholine receptor subunit alpha-9 (Homo sapiens)", "pEC50": 6.18}

###

Molecular target: Neuronal acetylcholine receptor subunit alpha-7 (Homo sapiens, UniProt P36544)
Sequence (P36544 whole entry): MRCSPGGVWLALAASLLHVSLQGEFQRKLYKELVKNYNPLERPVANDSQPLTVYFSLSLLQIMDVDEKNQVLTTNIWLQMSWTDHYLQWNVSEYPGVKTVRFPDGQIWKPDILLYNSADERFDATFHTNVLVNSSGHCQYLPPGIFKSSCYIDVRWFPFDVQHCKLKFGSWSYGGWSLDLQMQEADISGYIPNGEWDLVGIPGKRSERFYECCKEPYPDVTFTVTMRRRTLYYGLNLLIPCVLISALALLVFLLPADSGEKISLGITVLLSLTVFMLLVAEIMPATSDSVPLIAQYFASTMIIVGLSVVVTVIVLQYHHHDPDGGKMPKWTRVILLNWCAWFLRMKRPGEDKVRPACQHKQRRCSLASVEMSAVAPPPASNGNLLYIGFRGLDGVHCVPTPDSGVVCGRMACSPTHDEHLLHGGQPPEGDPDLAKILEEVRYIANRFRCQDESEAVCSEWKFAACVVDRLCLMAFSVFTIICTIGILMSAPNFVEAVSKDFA
Test: Agonist activity at human alpha7 nAChR expressed as xenopus laevis oocytes assessed as increase in receptor desensitization by measuring fold change in maximum response (Imax) measured after 120 secs by two-electrode voltage-clamp electrophysiology method relative to acetylcholine
Format: cell-based
Conditions: Oocyte, filed as agonist, time 120.0 sec
Recorded fold change (FC), one value per entry.

{"smiles-notation": "CC[N+]1(CC)CCN(c2ccc(C(=O)N3CCCC3)cc2)CC1", "fold change (FC)": 0.06}
{"smiles-notation": "CC[N+]1(CC)CCN(c2ccc(NC(=O)c3cccc(C)n3)cc2)CC1", "fold change (FC)": 0.14}
{"smiles-notation": "CC[N+]1(CC)CCN(c2ccc(C(=O)Nc3ccccn3)cc2)CC1", "fold change (FC)": 0.46}
{"smiles-notation": "CCCNC(=O)c1ccc(N2CC[N+](CC)(CC)CC2)cc1", "fold change (FC)": 0.38}
{"smiles-notation": "CC[N+]1(CC)CCN(c2ccc(-n3cccc3)cc2)CC1", "fold change (FC)": 0.041}
{"smiles-notation": "CC[N+]1(C)CCN(c2ccc(NC(=O)c3cccc(C)n3)cc2)CC1.[I-]", "fold change (FC)": 0.41}
{"smiles-notation": "Cc1cccc(NC(=O)c2ccc(N3CC[N+](C)(C)CC3)cc2)n1", "fold change (FC)": 0.57}

###

Recorded fold change (FC), one value per entry.
Target: Neuronal acetylcholine receptor; alpha9/alpha10 (Homo sapiens) (UniProt Q9UGM1+Q9GZZ6)
Experiment: Agonist activity at human alpha9alpha10 nAChR expressed as xenopus laevis oocytes assessed as increase in receptor desensitization by measuring fold change in maximum response (Imax) measured after 120 secs by two-electrode voltage-clamp electrophysiology method relative to acetylcholine
Assay type: cell-based
Conditions: Oocyte, filed as agonist, time 120.0 sec
property-measured: fold change (FC)

{"smiles-notation": "CC[N+]1(CC)CCN(c2ccc(C(=O)Nc3ccccn3)cc2)CC1", "measured": 0.94}
{"smiles-notation": "Cc1cccc(NC(=O)c2ccc(N3CC[N+](C)(C)CC3)cc2)n1", "measured": 0.89}
{"smiles-notation": "CC[N+]1(CC)CCN(c2ccc(C(=O)N3CCCC3)cc2)CC1", "measured": 0.56}
{"smiles-notation": "CC[N+]1(CC)CCN(c2ccc(-n3cccc3)cc2)CC1", "measured": 0.17}
{"smiles-notation": "CC[N+]1(CC)CCN(c2ccc(C(=O)Nc3cccc(C)c3)cc2)CC1", "measured": 1.12}
{"smiles-notation": "CC[N+]1(CC)CCN(c2ccc(C(N)=O)cc2)CC1", "measured": 1.19}
{"smiles-notation": "CC[N+]1(C)CCN(c2ccc(NC(=O)c3cccc(C)n3)cc2)CC1.[I-]", "measured": 1.04}
{"smiles-notation": "CC[N+]1(CC)CCN(c2ccc(-c3ncco3)cc2)CC1", "measured": 0.83}
{"smiles-notation": "CC[N+]1(C)CCN(c2ccc(C(=O)Nc3cccc(C)n3)cc2)CC1.[I-]", "measured": 0.92}
